Recorded melting point for the following compounds

COMPOUND	melting point
COC(=O)c1scc(-c2ccccc2)c1-c1ccc(S(C)=O)c(F)c1 (stereo not drawn)	164 °C
CCOC(=O)N1CCC(=C2c3ccc(Cl)cc3C=Cc3cccnc32)CC1	155 to 156 °C
O=c1[nH]c2cc(Cl)ccc2c(O)c1-c1ccc(F)cc1	335 to 337 °C

====

Recorded melting point for the following compounds
RECORDED ENDPOINT: melting point

COMPOUND	VALUE
N#CC(c1ccccn1)c1cccs1 (stereo not drawn)	48 to 50 °C
O=C(CN1CC(c2ccc(Cl)cc2)CC1=O)Oc1c(Cl)c(Cl)c(Cl)c(Cl)c1Cl (stereo not drawn)	135 to 136 °C
O=C(Nc1ccc2[nH]ccc2c1)C(=O)N1CCC(Cc2ccc(F)cc2)CC1	80 to 82 °C
CC1CCN(Cc2ccc(CCC(=O)Nc3ccc(-c4ccc(Cl)cc4)cc3)cc2)CC1	150 to 151 °C
CC(C)(C)c1cc(C(=O)c2ccc(O)cc2)cc(C(C)(C)C)c1O	188 to 190 °C
CN(C)C(=O)C(C)(C)Sc1nc2ccccc2cc1-c1ccccc1	149 to 156 °C
OCCN1CCN(C(c2ccccc2)(c2ccccc2)c2ccccc2)CC1	82 °C
COCCNC(=O)c1cccc(-c2cccc3cc(Cc4cccc(F)c4)sc23)c1	108 to 110 °C
CCCCOc1ccc(S(=O)(=O)Nc2onc(C)c2Br)cc1	98 to 100 °C
CCC1CCCCN1C(=O)C=Cc1c(-c2cccc(NC(=O)OC)c2)nn2ccccc12 (stereo not drawn)	143 to 145 °C
COC(=O)COc1cccc2c(CNS(=O)(=O)CCOc3ccccc3)coc12	83 to 84 °C
CNS(=O)(=O)Cc1ccc(Nc2nc(Nc3ccccc3)c3cc(OC)ccc3n2)cc1	212 to 215 °C
CCOC(=O)C1=C(C=O)Nc2ccnc(OC(C)C)c2C1c1ccccc1 (stereo not drawn)	132 to 135 °C
O=c1[nH]ncc2ccc(/C=C/c3ccc(O)cc3)cc12	305 to 308 °C
COc1ccc2c(c1)CN(Cc1c[nH]c3ccccc13)C2	178 to 180 °C
Cc1cc(C)nc(Oc2ccc([N+](=O)[O-])cc2)n1	108 to 110 °C
COC(=O)c1ccccc1C=Cc1ccc(Br)cc1	104 to 106 °C
CCCN(CCC)C1CNc2c(cc(Br)cc2[N+](=O)[O-])C1 (stereo not drawn)	88 to 91 °C
O=C(NCCCc1ccccc1)NCc1ccccn1	89 to 90 °C
CCCCCCCCCCCCNC(=O)n1nc(Oc2ncc(C(F)(F)F)cc2Cl)cc1C	56 to 57 °C
CNc1nc(NC)nc(NC)n1	133 °C
N#CC(CCCCCC(=O)O)c1ccc2ccccc2c1 (stereo not drawn)	88 to 89 °C
CS(=O)(=O)c1cc(C(=O)O)cc([N+](=O)[O-])c1Cl	190 to 194 °C
O=C1c2ccccc2CCC1CN1CCC(O)(c2ccccc2)CC1 (stereo not drawn)	164 to 167 °C
c1ccc(COc2ccc(-c3cocn3)cc2)cc1	101 to 102 °C
O=C(CCl)Nc1ccc2c(c1)C(=O)c1cc(NC(=O)CCl)ccc1C2=O	286 °C
Cc1cc(C2=CCN(S(=O)(=O)C(C)(C)C(=O)O)CC2)ccc1-c1cnc2ccccc2c1	222 to 224 °C
COc1cc(CC(=O)NCCOc2scc(C)c2C)ccc1OCCN	85 to 87 °C

====

Recorded melting point for the following compounds
RECORDED ENDPOINT: melting point

COMPOUND	RECORDED ENDPOINT	VALUE
C#CCOCC1=C(C(=O)OCC)C(c2cccc(Cl)c2Cl)C(C(=O)OC)=C(C)N1 (stereo not drawn)	melting point	104 to 105 °C
Cc1[nH]c(C#N)c(C)c1-c1nc2ccc(C(=O)c3ccccc3)cc2[nH]1	melting point	159 to 163 °C
CCCCc1nc(CCC)n[nH]1	melting point	48.5 to 50 °C
c1cc(COc2ccc3ccccc3c2)cc(-c2nnn[nH]2)c1	melting point	200 to 202 °C
COP(=O)(OC)C1=C(C)NC(C)=C(C(=O)OCCN(C)Cc2ccccc2)C1c1cccc([N+](=O)[O-])c1 (stereo not drawn)	melting point	101 to 103 °C
O=c1[nH]c(NCCCNc2ccccn2)ncc1Cc1ccc(Cl)cc1	melting point	168 to 171 °C
CNC(=NCCSCc1ncccc1OC)NC#N	melting point	122 to 123 °C
CCOC(=O)c1cn(CC)c2cc3c(cc2c1=O)OCO3	melting point	177 to 178 °C

====

Recorded melting point for the following molecules

MOLECULE	melting point
Cc1ccc2c(=O)n(S(=O)(=O)c3ccc(Cl)cc3)c(=O)[nH]c2c1C	241 to 245 °C
Cn1nnnc1-c1cnc2ccccn2c1=O	280 to 282 °C
CSc1ncc(Oc2cccnc2)c(=O)[nH]1	205 to 208 °C
C[C@@H](O)c1nccc(N2CCC(=Cc3cccc(Cl)c3)CC2)n1	45 to 55 °C
CONC(=O)c1cc2c(Sc3ccc(C)cc3)cncc2s1	200 to 203 °C
CN(C)CCNc1nc2cc(Cl)c(Cl)cc2nc1-c1ccccn1	95 to 97 °C
CN(C)C=Nc1cnc(-c2cccc(CO)c2)nc1	105 to 106 °C
O=C(Nc1cccc(Cl)c1)c1ccccc1CN1C(=O)C2(COc3cc4c(cc32)CCO4)c2ccccc21 (stereo unspecified)	> 230 °C
NC(=O)C1CCN(Cc2ccc(-c3cc4ncnc(Nc5ccc6[nH]ccc6c5)c4s3)cc2)CC1	198 to 205 °C
O=c1c2c[nH]c3ccccc3c-2nn1-c1ccccc1	326 to 328 °C
CCOC(=O)c1c(CN2CCOCC2)nc2cc(OCC)c(OCC)cc2c1-c1ccc(OC)c(OC)c1	147 to 148 °C
CCOC(=O)C1COc2c(C(=O)c3ccccc3)cccc21 (stereo unspecified)	42 to 43 °C
NS(=O)(=O)c1ccsc1C1=NOCCO1	180 °C
O=S(=O)(c1ccc(O)cc1)N1c2ccc(Br)cc2-c2ccccc2C1c1ccccc1 (stereo unspecified)	262 to 265 °C
CN(Cc1ccc(Cl)cc1)C(=O)C12CC3CC(CC(C3)C1)C2	65 to 66.5 °C
CCCCCS(=O)(=O)NC(=O)CCc1ccc(OCC(=O)N(CC)CC)cc1Oc1ncc(C(F)(F)F)cc1Cl	111 to 113 °C

====

Recorded melting point for the following molecules

MOLECULE	melting point
COC(=O)c1nc(-c2csc3ccc(C)cc23)nc(N)c1Cl	164 to 165 °C
COC(=O)[C@@H](OS(=O)(=O)c1ccc(C)cc1)[C@H](O)C1CC1	75 to 78 °C
O=C(O)Cc1cccc(OCCCc2cn(-c3ccc(C(F)(F)F)cn3)nc2-c2ccccc2)c1	132 to 133 °C
CC(=O)N1CCC(CNCc2ccc(C=CC(=O)Nc3ccc(-c4ccc(Cl)cc4)cc3)cc2)CC1	225 to 226 °C
COc1ccc(CN2CCN(NC(=O)c3cc(Cl)c(N)cc3OC)CC2)cc1	154 to 156 °C
N#CNC(=NCCCOc1ccccc1)Nc1cncc(Br)c1	129 to 130 °C
CCOC(=O)C=CC=Cc1ccc([N+](=O)[O-])cc1	150 to 152 °C
COc1ccc(CCC(C)(C)NCC(O)c2cccc(Cl)c2)cc1 (centres undefined)	50 to 53 °C
O=c1c2c(Cc3ccc(F)cc3)n[nH]c2c2cccnc2n1-c1cccc(C(F)(F)F)c1	243 to 245 °C
COc1ccccc1-n1cnnc1C(F)(F)F	62 °C
CCCCCCCCCCCCCCCCCCOc1cc(OCC(=O)OC)cc(C(=O)N(CC(=O)OC)CC(=O)OC)c1	53 to 55 °C
CC(C)(C)OC(=O)N1CCC2(CC1)CC(c1ccc(C#N)cc1)=NO2	169 to 171 °C
CCCn1c(=O)c2[nH]c(/C=C/c3cc(Br)c(OC)c(OC)c3)nc2n(CCC)c1=O	277 to 278 °C
CC(=O)OC1CSC(Oc2cncc(-c3ccc(F)c(C#N)c3)c2)C(OC(C)=O)C1OC(C)=O (centres undefined)	178 °C
Nc1ccc2c(c1)CCN(Cc1ncn[nH]1)C2	191 to 193 °C
CCOC(=O)CN1CCc2cc3c(cc2CC1)OCO3	89 to 90 °C
N#Cc1ccc(N2CCN(CCC3CCc4ccccc43)CC2)cc1 (centres undefined)	157 to 158 °C
Cc1ccc(S(=O)(=O)NC(=O)Nc2ccc(C(F)(F)F)cc2)cc1	194 to 197 °C
Cc1c(C)c2c(c(C)c1O)CC(C)C(C(=S)Nc1ccccc1)O2 (centres undefined)	175 °C
Cc1ccn2c(-c3ccnc(-c4ccc(N5CCOCC5)cc4)c3)c(-c3cccc(C)n3)nc2c1	208 °C
NCC1COc2cc(Cl)cc(-c3ccc(Cl)cc3C(F)(F)F)c2N1 (centres undefined)	95 °C
O=S(=O)(NCCCN1CCOCC1)C(F)(F)F	95 to 97 °C
O=C1c2ccccc2C(=O)N1OCCN(CCO)CCON1C(=O)c2ccccc2C1=O	136 to 138 °C
O=C(NCCO)c1cccc(-c2ccc3ccn(-c4ccc(Cl)cc4Cl)c3n2)c1	159 to 160 °C
